- method: Pharmacokinetics after 21 days dosing in the efficacy study (plasma, tumor and brain concentrations; plasma AUC at steady state), Example 14
- Assay type: in vivo, female BALB/c nude mice
- recordedConditions: mouse, plasma, po; 2 mg/kg p.o. TID x 21 days; 24 h; mean ± SEM; read-out: Concentration in Plasma
measuredQuantity: concentration at 24 h (ng/mL)
Entry rule: numbers only, all in ng/mL.

Entry under test: CCN(C)S(=O)(=O)Nc1ccc(F)c(Oc2ccc3ncn([C@H]4COC5(CCN(C6CC7(C6)CN(c6cc8c(cc6F)c(N6CCC(=O)NC6=O)nn8C)C7)CC5)C4)c(=O)c3c2)c1C#N [Compound 26] . Its concentration at 24 h was 106

* * *

- method: Example 8 pharmacokinetics assay for PKPD study (plasma, tumor, liver)
- Format: in vivo, BALB/c nude mice
- recordedConditions: mouse, plasma, po, 35 mg/kg, p.o., single dose; 1 h; read-out: Concentration in Plasma (mean ± SEM)
measuredQuantity: concentration at 1 h (ng/mL)
Entry rule: numbers only, all in ng/mL.

Entry under test: COC(=O)N[C@@H](C)CNc1nccc(-c2cn(C(C)C)nc2-c2cc(Cl)cc(NS(C)(=O)=O)c2F)n1 [Encorafenib, encorafenib, reference compound] . Its concentration at 1 h was 5510

* * *

- method: Pharmacokinetics after 21 days dosing in the efficacy study (plasma, tumor and brain concentrations; plasma AUC at steady state), Example 14
- Format: in vivo, female BALB/c nude mice
- recordedConditions: mouse, plasma, po; 3 mg/kg p.o. QD x 21 days; 24 h; mean ± SEM; read-out: Concentration in Plasma
measuredQuantity: concentration at 24 h (ng/mL)
Entry rule: numbers only, all in ng/mL.

Entry under test: CCN(C)S(=O)(=O)Nc1ccc(F)c(Oc2ccc3ncn(C4CC5(CCN(C6CC7(C6)CN(c6cc8c(cc6F)c(N6CCC(=O)NC6=O)nn8C)C7)CC5)C4)c(=O)c3c2)c1C#N (stereo not shown) . Its concentration at 24 h was 12.2

* * *

- method: Pharmacokinetics in female BALB/c nude mice bearing A375 xenografts, 1 day dosing (PK and PD study): plasma, tumor and brain concentrations, AUC
- Assay type: in vivo
- recordedConditions: mouse, brain, po, 1.5 mg/kg, Compound 141; 1.5 mg/kg p.o. BID × 1 day; post 2nd dose; 0.5 h; read-out: Mean Concentration in Brain ± SEM
measuredQuantity: concentration at 0.5 h
Write the numeric value and follow it with the unit.

Entry under test: CCN(C)S(=O)(=O)Nc1ccc(F)c(Oc2ccc3ncn(C4CC5(CCN(C6CC7(C6)CN(c6cc8c(cc6F)c(N6CCC(=O)NC6=O)nn8C)C7)CC5)C4)c(=O)c3c2)c1C#N (stereo not shown) . Its concentration at 0.5 h was 25.5 ng/g

* * *

- systemUnderTest: BRAF V600E (Homo sapiens, UniProt P15056+Q96SW2, V600E)
- Construct: knock-in of the HiBiT tag to the endogenous BRAF V600E locus; host or cells: A375.10 (A375 clonal line, CRISPR HiBiT knock-in at the endogenous BRAF V600E locus)
- Sequence (P15056 whole entry V600E): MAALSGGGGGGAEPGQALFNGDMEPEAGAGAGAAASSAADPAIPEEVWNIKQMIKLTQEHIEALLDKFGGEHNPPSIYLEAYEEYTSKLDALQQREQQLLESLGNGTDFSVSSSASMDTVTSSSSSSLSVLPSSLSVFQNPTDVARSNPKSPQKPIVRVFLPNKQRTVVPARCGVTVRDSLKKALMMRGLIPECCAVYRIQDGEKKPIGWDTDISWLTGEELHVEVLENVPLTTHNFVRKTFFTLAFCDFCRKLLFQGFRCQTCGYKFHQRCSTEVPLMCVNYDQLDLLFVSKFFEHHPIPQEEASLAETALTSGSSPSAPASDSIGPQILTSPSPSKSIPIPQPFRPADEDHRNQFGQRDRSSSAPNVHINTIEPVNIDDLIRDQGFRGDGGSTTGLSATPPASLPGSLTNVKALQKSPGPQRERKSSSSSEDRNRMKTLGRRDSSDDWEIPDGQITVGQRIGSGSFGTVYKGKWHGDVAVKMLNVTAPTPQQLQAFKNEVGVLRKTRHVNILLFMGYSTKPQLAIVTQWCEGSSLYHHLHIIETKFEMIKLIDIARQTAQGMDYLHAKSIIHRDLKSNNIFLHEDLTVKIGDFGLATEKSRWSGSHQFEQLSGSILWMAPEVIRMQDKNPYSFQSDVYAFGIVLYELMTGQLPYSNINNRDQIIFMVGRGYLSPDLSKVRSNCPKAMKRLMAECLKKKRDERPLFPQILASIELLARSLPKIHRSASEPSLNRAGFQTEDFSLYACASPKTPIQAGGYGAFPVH
- Sequence (Q96SW2 whole entry): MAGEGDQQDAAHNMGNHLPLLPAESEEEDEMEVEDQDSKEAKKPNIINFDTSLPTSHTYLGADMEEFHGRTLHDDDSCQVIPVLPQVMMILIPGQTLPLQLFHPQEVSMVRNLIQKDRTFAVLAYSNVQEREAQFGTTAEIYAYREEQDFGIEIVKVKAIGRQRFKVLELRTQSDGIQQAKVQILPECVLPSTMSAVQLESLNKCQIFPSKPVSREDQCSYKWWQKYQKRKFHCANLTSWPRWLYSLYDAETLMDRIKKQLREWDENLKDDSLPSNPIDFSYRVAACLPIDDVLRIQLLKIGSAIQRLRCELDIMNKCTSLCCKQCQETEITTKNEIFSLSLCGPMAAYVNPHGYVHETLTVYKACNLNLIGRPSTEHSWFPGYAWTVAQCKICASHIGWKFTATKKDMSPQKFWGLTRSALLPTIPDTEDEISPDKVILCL
- Sequence (Q16531 whole entry partner): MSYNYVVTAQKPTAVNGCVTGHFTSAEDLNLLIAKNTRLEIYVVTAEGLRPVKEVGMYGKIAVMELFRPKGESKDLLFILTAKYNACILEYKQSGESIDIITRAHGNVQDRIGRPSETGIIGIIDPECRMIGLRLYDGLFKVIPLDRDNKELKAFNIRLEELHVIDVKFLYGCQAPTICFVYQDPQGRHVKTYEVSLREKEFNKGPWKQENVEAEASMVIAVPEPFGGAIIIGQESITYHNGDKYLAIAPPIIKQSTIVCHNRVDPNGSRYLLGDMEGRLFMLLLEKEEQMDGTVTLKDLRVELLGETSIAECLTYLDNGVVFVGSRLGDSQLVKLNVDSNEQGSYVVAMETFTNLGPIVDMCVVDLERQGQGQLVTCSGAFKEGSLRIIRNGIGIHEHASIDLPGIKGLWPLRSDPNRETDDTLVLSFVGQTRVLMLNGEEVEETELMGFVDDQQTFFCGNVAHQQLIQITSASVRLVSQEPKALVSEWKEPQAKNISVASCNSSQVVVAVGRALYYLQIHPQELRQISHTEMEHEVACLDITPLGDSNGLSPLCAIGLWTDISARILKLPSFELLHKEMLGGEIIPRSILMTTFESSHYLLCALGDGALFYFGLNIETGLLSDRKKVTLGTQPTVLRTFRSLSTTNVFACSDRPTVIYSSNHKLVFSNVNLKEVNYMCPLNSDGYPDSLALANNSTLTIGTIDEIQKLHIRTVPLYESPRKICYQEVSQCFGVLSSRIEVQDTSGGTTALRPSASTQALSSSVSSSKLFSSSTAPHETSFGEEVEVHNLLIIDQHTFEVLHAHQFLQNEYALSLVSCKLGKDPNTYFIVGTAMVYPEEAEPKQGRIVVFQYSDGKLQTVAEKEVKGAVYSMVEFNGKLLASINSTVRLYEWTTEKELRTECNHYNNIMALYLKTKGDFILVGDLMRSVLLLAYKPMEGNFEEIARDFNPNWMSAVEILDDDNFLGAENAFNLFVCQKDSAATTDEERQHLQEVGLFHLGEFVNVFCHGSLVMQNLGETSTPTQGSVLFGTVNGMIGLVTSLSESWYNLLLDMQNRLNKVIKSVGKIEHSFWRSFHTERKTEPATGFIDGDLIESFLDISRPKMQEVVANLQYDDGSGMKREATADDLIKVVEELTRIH
- method: BRAF V600E HiBiT Degradation Assay
- Format: cell-based
- recordedConditions: A375.10 cells, BRAF V600E, 2 hours; read-out: HiBiT-Degradation A375.10 BRAF 2 hours DC50
measuredQuantity: DC50

Solved entries:
CCN(C)S(=O)(=O)Nc1ccc(F)c(Oc2ccc3ncc(OCC4(O)CCN(C5CCC(c6cc7c(cc6F)c(N6CCC(=O)NC6=O)nn7C)CC5)CC4)nc3c2)c1C#N (single isomer, unassigned) [Compound 195]	> 10 µM
CCN(C)S(=O)(=O)Nc1ccc(F)c(Oc2ccc3ncn([C@H]4COC5(CCC(N6CC7(CN(c8ccc(NC9CCC(=O)NC9=O)cc8F)C7)C6)CC5)C4)c(=O)c3c2)c1C#N (single isomer, unassigned) [Compound 191]	< 1 µM
CCN(C)S(=O)(=O)Nc1ccc(F)c(Oc2ccc3ncc(OC4CC5(C4)CN(C4CCC(c6cc7c(cc6F)c(N6CCC(=O)NC6=O)nn7C)CC4)C5)nc3c2)c1C#N (single isomer, unassigned) [Compound 281]	> 10 µM

Then there is this compound:
Entry under test: CCN(C)S(=O)(=O)Nc1ccc(F)c(Oc2ccc3ncc(OCC4CCN(C5CCC(c6cc7c(cc6F)c(N6CCC(=O)NC6=O)nn7C)CC5)CC4)nc3c2)c1C#N (single isomer, unassigned) [Compound 119] . Its DC50 was < 1 µM

* * *

- method: Pharmacokinetics in female BALB/c nude mice bearing A375 xenografts, 1 day dosing (PK and PD study): plasma, tumor and brain concentrations, AUC
- Format: in vivo
- recordedConditions: mouse, plasma, po, 1.5 mg/kg, 1.5 mg/kg p.o. BID × 1 day; post 2nd dose; 36 h; read-out: Mean Concentration in Plasma ± SEM
measuredQuantity: concentration at 36 h (ng/mL)
Entry rule: numbers only, all in ng/mL.

Entry under test: `CCN(C)S(=O)(=O)Nc1ccc(F)c(Oc2ccc3ncn([C@H]4COC5(CCN(C6CC7(C6)CN(c6cc8c(cc6F)c(N6CCC(=O)NC6=O)nn8C)C7)CC5)C4)c(=O)c3c2)c1C#N` . Its concentration at 36 h was 0.889

* * *

- method: Pharmacokinetics in female BALB/c nude mice bearing A375 xenografts, 1 day dosing (PK and PD study): plasma, tumor and brain concentrations, AUC
- Assay type: in vivo
- recordedConditions: mouse, brain, po, 6 mg/kg, 6 mg/kg p.o. QD × 1 day; 10 h; read-out: Mean Concentration in Brain ± SEM
measuredQuantity: concentration at 10 h (ng/g)
Entry rule: numbers only, all in ng/g.

Entry under test: `CCN(C)S(=O)(=O)Nc1ccc(F)c(Oc2ccc3ncn([C@H]4COC5(CCN(C6CC7(C6)CN(c6cc8c(cc6F)c(N6CCC(=O)NC6=O)nn8C)C7)CC5)C4)c(=O)c3c2)c1C#N` . Its concentration at 10 h was 30.8

* * *

Recorded DC50, one value per entry.
- systemUnderTest: BRAF V600E (Homo sapiens, UniProt P15056+Q96SW2, V600E)
- Construct: knock-in of the HiBiT tag to the endogenous BRAF V600E locus; host or cells: A375.10 (A375 clonal line, CRISPR HiBiT knock-in at the endogenous BRAF V600E locus)
- method: BRAF V600E HiBiT Degradation Assay
- Assay type: cell-based
- recordedConditions: read-out: HiBiT-Degradation A375.10 BRAF 2 hours DC50; A375.10 cells, BRAF V600E, 2 hours

Solved entries:
CCN(C)S(=O)(=O)Nc1ccc(F)c(Oc2ccc3ncn([C@H]4COC5(CCC(N6CCN(c7ccc(NC8CCC(=O)NC8=O)cc7F)CC6)CC5)C4)c(=O)c3c2)c1C#N (some centres unmarked)	1000 to 10000 nM
CN(CCO)S(=O)(=O)Nc1ccc(F)c(Oc2ccc3ncn(C4CC5(CCN(C6CC7(C6)CN(c6cc8c(cc6F)c(N6CCC(=O)NC6=O)nn8C)C7)CC5)C4)c(=O)c3c2)c1C#N (centres unmarked)	1000 to 10000 nM
Cn1nc(N2CCC(=O)NC2=O)c2cc(F)c(C3CCC(N4CCC5(CC4)CC(c4cnc6ccc(Oc7c(F)ccc(NS(=O)(=O)C8CCCC8)c7C#N)cc6n4)C5)CC3)cc21 (single isomer, unassigned) [Compound 270]	< 1000 nM
CN(CCO)S(=O)(=O)Nc1ccc(F)c(Oc2ccc3ncc(C4CC5(CCN(C6CC7(C6)CN(c6cc8c(cc6F)c(N6CCC(=O)NC6=O)nn8C)C7)CC5)C4)nc3c2)c1C#N (centres unmarked)	1000 to 10000 nM

Then there is this molecule:
Entry under test: `Cn1nc(N2CCC(=O)NC2=O)c2cc(F)c(N3CC4(CC(N5CCC6(CC5)CC(c5cnc7ccc(Oc8c(F)ccc(NS(=O)(=O)N9CC[C@@H](F)C9)c8C#N)cc7n5)C6)C4)C3)cc21` . Its DC50 was < 1000 nM

* * *

- Test system: A375-NRAS^Q61K cells
- method: CTGlo Cell Viability Assay, A375-NRAS^Q61K (A375.11) cells, 96 hours
- Type: cell-based, human
- recordedConditions: Homo sapiens, 96 h, A375.11 (A375-NRAS^Q61K) cells
measuredQuantity: GI50

Solved entries:
CC(C)S(=O)(=O)Nc1ccc(F)c(Oc2ccc3ncc(C4CC5(CCN(C6CCC(c7cc8c(cc7F)c(N7CCC(=O)NC7=O)nn8C)CC6)CC5)C4)nc3c2)c1C#N (single isomer, unassigned) [Compound 248]	1 to 10 µM
CCN(C)S(=O)(=O)Nc1ccc(F)c(Oc2ccc3ncc(OCC4CCN(C5CCC(c6cc7c(cc6F)c(N6CCC(=O)NC6=O)nn7C)CC5)CC4)nc3c2)c1C#N (single isomer, unassigned) [Compound 118]	1 to 10 µM
CO[C@@H]1CCN(S(=O)(=O)Nc2ccc(F)c(Oc3ccc4ncn(C5CC6(CCN(C7CC8(C7)CN(c7cc9c(cc7F)c(N7CCC(=O)NC7=O)nn9C)C8)CC6)C5)c(=O)c4c3)c2C#N)C1 (stereo partly drawn) [Compound 269]	< 1 µM
Cn1nc(N2CCC(=O)NC2=O)c2cc(F)c(N3CC4(CC(N5CCC6(CC5)CC(n5cnc7ccc(Oc8c(F)ccc(NS(=O)(=O)C9CCCC9)c8C#N)cc7c5=O)C6)C4)C3)cc21 [Compound 250]	< 1 µM
CCN(C)S(=O)(=O)Nc1ccc(F)c(Oc2ccc3ncn([C@H]4COC5(CCC(N6CCC(c7cc8c(cc7F)c(N7CCC(=O)NC7=O)nn8C)C(F)(F)C6)CC5)C4)c(=O)c3c2)c1C#N (single isomer, unassigned) [Compound 38]	< 1 µM

Entry under test: CN(CCO)S(=O)(=O)Nc1ccc(F)c(Oc2ccc3ncn([C@H]4COC5(CCC(N6CCC(c7cc8c(cc7F)c(N7CCC(=O)NC7=O)nn8C)C(F)(F)C6)CC5)C4)c(=O)c3c2)c1C#N (single isomer, unassigned) [Compound 212] . Its GI50 was < 1 µM

Entry under test: CCN(C)S(=O)(=O)Nc1ccc(F)c(Oc2ccc3ncn([C@H]4CCC5(CCN(C6CCC(c7ccc(NC8CCC(=O)NC8=O)cc7F)CC6)CC5)C4)c(=O)c3c2)c1C#N (single isomer, unassigned) [Compound 24] . Its GI50 was < 1 µM

Entry under test: CCN(C)S(=O)(=O)Nc1ccc(F)c(Oc2ccc3ncn([C@H]4COC5(CCN(C6CC7(C6)CN(c6ccc(NC8CCC(=O)NC8=O)cc6F)C7)CC5)C4)c(=O)c3c2)c1F (stereo partly drawn) [Compound 193] . Its GI50 was 1 to 10 µM

Entry under test: CCN(C)S(=O)(=O)Nc1ccc(F)c(Oc2ccc3ncn([C@H]4COC5(CCN(C6CCC(c7cc8c(cc7F)c(N7CCC(=O)NC7=O)nn8C)CC6)CC5)C4)c(=O)c3c2F)c1C#N (single isomer, unassigned) [Compound 41] . Its GI50 was < 1 µM

Entry under test: CCN(C)S(=O)(=O)Nc1ccc(F)c(Oc2ccc3ncn([C@H]4COC5(CCN(C6CCC(c7ccc(N[C@@H]8CCC(=O)NC8=O)cc7F)CC6)CC5)C4)c(=O)c3c2)c1C#N (single isomer, unassigned) [Compound 4] . Its GI50 was < 1 µM

Entry under test: CO[C@H]1CCN(S(=O)(=O)Nc2ccc(F)c(Oc3ccc4ncc(C5CC6(CCN(C7CC8(C7)CN(c7cc9c(cc7F)c(N7CCC(=O)NC7=O)nn9C)C8)CC6)C5)nc4c3)c2C#N)C1 (stereo partly drawn) [Compound 279] . Its GI50 was > 10 µM
